# target-system: Sso7c4 wild-type (Sulfolobus solfataricus P2, UniProt A0A0E3K9N8 1-54)
# Sequence (A0A0E3K9N8 entry or part of it): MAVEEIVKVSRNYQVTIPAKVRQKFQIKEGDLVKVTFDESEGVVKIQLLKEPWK
# assay-name: tryptophan fluorescence quenching; 20 mM Tris-Cl pH 7.5, no added salt, 25 C; FP with 100 nM FAM-DNA, 1 h at room temperature
# test-settings: protein: recombinant; chain copies: 2; blunt, self-complementary
measured-endpoint: Kd (µM)
Number only, in µM; omit the unit.

Quick note, Kd for 20-bp DNA unlabeled (dsDNA) DNA 1: CCAACACTGGCCAGTGTTGG DNA 2: CCAACACTGGCCAGTGTTGG landed at 22.8

Data origin: paper PMC5222340
